Target: ICE (Homo sapiens)
Sequence (P29466 120-297 limits assumed): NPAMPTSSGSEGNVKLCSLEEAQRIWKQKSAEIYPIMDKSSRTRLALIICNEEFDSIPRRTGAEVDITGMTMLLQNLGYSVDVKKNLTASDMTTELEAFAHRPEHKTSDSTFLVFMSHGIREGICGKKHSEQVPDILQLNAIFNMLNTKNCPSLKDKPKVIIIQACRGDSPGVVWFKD
Sequence (P29466 317-404 limits assumed): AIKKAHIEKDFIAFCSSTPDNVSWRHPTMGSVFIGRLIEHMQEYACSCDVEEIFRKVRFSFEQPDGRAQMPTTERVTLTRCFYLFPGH
Test: Enzyme assay with UV-visible substrate (visible ICE assay, Succinyl-Tyr-Val-Ala-Asp-pNitroanilide)
Type: biochemical
Details: Table 5
ENDPOINT_NAME: Ki (µM)

Below: 3 compounds and their reported Ki.
**Q:** Identify measured Ki obtained with ICE (Homo sapiens) for O=C(O)C[C@H](NC(=O)[C@@H]1CCCN2C(=O)CC[C@H](NC(=O)c3ccccc3)C(=O)N12)C(=O)c1nc2cc(Cl)cc(Cl)c2o1 [Compound 223e] .
**A:** 0.0016

**Q:** Identify measured Ki obtained with ICE (Homo sapiens) for O=C[C@H](CC(=O)O)NC(=O)[C@@H]1CCCN2C(=O)CC[C@H](NC(=O)c3ccc(F)c(Cl)c3)C(=O)N12 [Compound 459] .
**A:** 0.005

**Q:** Identify measured Ki obtained with ICE (Homo sapiens) for O=C[C@H](CC(=O)O)NC(=O)[C@@H]1CCCN2C(=O)CC[C@H](NC(=O)C3CCCCC3)C(=O)N12 [Compound 426] .
**A:** 0.09

[a] CC(=O)N1C[C@H](NC(=O)c2cccc(O)c2C)C(=O)N(CC(=O)N[C@H](C=O)CC(=O)O)c2ccccc21 [Compound 626]
[b] Cc1cc2c(cc1C(=O)N[C@H]1CCC(=O)N3CCC[C@@H](C(=O)N[C@H](C=O)CC(=O)O)N3C1=O)OCO2 [Compound 473]
[c] CC(=O)N1C[C@H](NC(=O)OCc2ccccc2)C(=O)N(CC(=O)N[C@H](C=O)CC(=O)O)c2ccccc21 [Compound 633]
[d] O=C[C@H](CC(=O)O)NC(=O)[C@@H]1CCCN2C(=O)CC[C@H](NC(=O)c3ccc(F)c(F)c3)C(=O)N12 [Compound 458]
**Q:** Order the items by recorded Ki; the first position goes to the largest value. Put the labels in the requested order and list them out.
**A:** a, c, d, b

[P] O=C[C@H](CC(=O)O)NC(=O)[C@@H]1CCCN2C(=O)CC[C@H](NC(=O)c3ccnc4ccccc34)C(=O)N12 [Compound 435]
[Q] COc1cccc(C(=O)N[C@H]2CCC(=O)N3CCC[C@@H](C(=O)N[C@H](C=O)CC(=O)O)N3C2=O)c1 [Compound 451]
[R] O=C[C@H](CC(=O)O)NC(=O)CN1C(=O)[C@@H](NC(=O)c2ccccc2)CN(C(=O)OC2CCOC2)c2ccccc21 (stereo partly shown) [Compound 605q]
**Q:** In this exercise, place the 3 compounds in ascending sequence of their recorded Ki. Put the labels in the requested order and list them out.
**A:** Q, P, R

---

Target: ICE (Homo sapiens, UniProt P29466)
Assay: Enzyme assay with UV-visible substrate (visible ICE assay, Succinyl-Tyr-Val-Ala-Asp-pNitroanilide)
Type: biochemical
Details: Table 17
ENDPOINT_NAME: Ki (nM)

[a] CC(=O)N1C[C@H](NC(=O)C(=O)Nc2ccc(Cl)cc2)C(=O)N(CC(=O)N[C@H](C=O)CC(=O)O)c2ccccc21
[b] O=C(O)C[C@H](NC(=O)[C@@H]1CCCN2C(=O)CC[C@H](NC(=O)c3ccccc3)C(=O)N12)C(=O)CSc1nccs1 [Compound 510a]
[c] COc1ccc(C(=O)N[C@H]2CN(C(=O)CO)c3ccccc3N(CC(=O)N[C@H](C=O)CC(=O)O)C2=O)cc1
**Q:** Give the ascending ranking of the items by reported Ki. Put the labels in the requested order and list them out.
**A:** c, b, a
(c: 10 nM, b: 65 nM, a: 110 nM)
